The measured values listed here are drawn from paper PMC12534982.

SYSTEM UNDER TEST: recombinant human DHODH (full-length wild-type) (Homo sapiens, UniProt Q02127)
Construct: The generation of recombinant enzymes (full-length wild-type); made in house
Sequence (Q02127 whole entry): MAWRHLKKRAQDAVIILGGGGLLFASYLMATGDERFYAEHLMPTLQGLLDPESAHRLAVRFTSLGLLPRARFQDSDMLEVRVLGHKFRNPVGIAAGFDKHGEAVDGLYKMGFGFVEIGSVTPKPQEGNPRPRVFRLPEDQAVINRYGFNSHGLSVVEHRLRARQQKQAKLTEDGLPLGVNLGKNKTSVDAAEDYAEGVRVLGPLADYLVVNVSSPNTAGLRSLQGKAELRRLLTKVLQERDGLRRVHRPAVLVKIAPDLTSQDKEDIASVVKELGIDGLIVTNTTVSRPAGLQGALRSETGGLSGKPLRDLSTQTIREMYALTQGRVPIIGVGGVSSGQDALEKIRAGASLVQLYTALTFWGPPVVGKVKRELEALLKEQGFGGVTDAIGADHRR
EXPERIMENT DESCRIPTION: In vitro DHODH enzyme activity assay
Type: biochemical
COND: derived from the IC50 at 0.1 mM DHO, assuming pure competitive inhibition
MEASURE: pKi
pKi here is simply -log10 of the concentration when that concentration is written in mol/L.

Q) Which pKi value is on record for COc1cc(C)c(Oc2cc(C)cc(O)c2O)c(O)c1 [NK-A 17E-233I] ?
A) 5.41

---

SYSTEM UNDER TEST: recombinant human DHODH (full-length wild-type) (Homo sapiens)
Construct: The generation of recombinant enzymes (full-length wild-type); made in house
EXPERIMENT DESCRIPTION: In vitro DHODH enzyme activity assay
Assay type: biochemical
COND: 0.1 mM DHO, 0.1 mM QD; mean ± SD (n = 4–6)
MEASURE: IC50
Write your answer as a measured quantity: the number, then the unit.

Q) Which IC50 value is on record for COc1cc(C)c(Oc2cc(C)cc(O)c2O)c(O)c1 [NK-A 17E-233I] ?
A) 28.9 µM

---

SYSTEM UNDER TEST: recombinant human DHODH (full-length wild-type) (Homo sapiens, UniProt Q02127)
Construct: The generation of recombinant enzymes (full-length wild-type); made in house
EXPERIMENT DESCRIPTION: In vitro DHODH enzyme activity assay
Format: biochemical
COND: derived from the IC50 at 1 mM DHO, assuming pure competitive inhibition
MEASURE: Ki
Write your answer as a measured quantity: the number, then the unit.

Q) Which Ki value is on record for COc1cc(C)c(Oc2cc(C)cc(O)c2O)c(O)c1 [NK-A 17E-233I] ?
A) 1500 nM

---

SYSTEM UNDER TEST: Δ29 DHODH (N-truncated) (Homo sapiens, UniProt Q02127)
Construct: N-terminal truncated form of human DHODH (Δ29), where the N-terminal transmembrane domain was removed
Sequence (Q02127 29-395, stated change not applied): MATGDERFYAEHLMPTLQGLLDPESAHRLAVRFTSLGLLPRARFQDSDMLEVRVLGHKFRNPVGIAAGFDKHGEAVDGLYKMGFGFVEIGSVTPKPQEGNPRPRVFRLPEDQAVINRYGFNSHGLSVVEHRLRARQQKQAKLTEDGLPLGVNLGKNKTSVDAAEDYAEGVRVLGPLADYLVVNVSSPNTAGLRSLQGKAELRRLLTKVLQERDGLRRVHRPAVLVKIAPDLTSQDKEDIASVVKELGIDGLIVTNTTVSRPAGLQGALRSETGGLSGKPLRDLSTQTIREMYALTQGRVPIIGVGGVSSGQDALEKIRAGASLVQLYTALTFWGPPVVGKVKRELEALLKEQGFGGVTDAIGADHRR
EXPERIMENT DESCRIPTION: In vitro DHODH enzyme activity assay
COND: 1 mM DHO; mean ± SD (n = 3)
Experimental: The assays to determine the inhibition constants of inhibitors of the recombinant DHODH enzymes are described in [28, 29]. The IC50 values were determined by fitting the equation V = V max/(1 + (I/IC50)^h) to the assay data using SigmaPlot14 (Systat Software Inc.). In this equation, V represents the measured enzyme activity, while V max indicates the maximum enzyme activity reached. I denotes the inhibitor concentration, and h describes the slope of the fitted curve.
MEASURE: pIC50
pIC50 here is simply -log10 of the concentration when that concentration is written in mol/L.

Q) # returns recorded pIC50 (system: Δ29 DHODH (N-truncated) (Homo sapiens, UniProt Q02127)) for COc1cc(C)c(Oc2cc(C)cc(O)c2O)c(O)c1 [NK-A 17E-233I]
A) 4.00

---

SYSTEM UNDER TEST: recombinant human DHODH (full-length wild-type) (Homo sapiens)
Construct: The generation of recombinant enzymes (full-length wild-type); made in house
EXPERIMENT DESCRIPTION: In vitro DHODH enzyme activity assay
Format: biochemical
COND: 1 mM DHO, 0.1 mM QD; mean ± SD (n = 4–6)
Procedure: The assays to determine the inhibition constants of inhibitors of the recombinant DHODH enzymes are described in [28, 29]. The IC50 values were determined by fitting the equation V = V max/(1 + (I/IC50)^h) to the assay data using SigmaPlot14 (Systat Software Inc.). In this equation, V represents the measured enzyme activity, while V max indicates the maximum enzyme activity reached. I denotes the inhibitor concentration, and h describes the slope of the fitted curve.
MEASURE: pIC50
pIC50 here is simply -log10 of the concentration when that concentration is written in mol/L.

Q) Which pIC50 value is on record for COc1cc(C)c(Oc2cc(C)cc(O)c2O)c(O)c1 [NK-A 17E-233I] ?
A) 4.01

---

SYSTEM UNDER TEST: DHODH R136C (Homo sapiens, UniProt Q02127, R135C)
Construct: made in house
Sequence (Q02127 whole entry R135C): as the sequence (Q02127 whole entry) above, with R135C counted along it
EXPERIMENT DESCRIPTION: In vitro DHODH enzyme activity assay
Format: biochemical
COND: 1 mM DHO; mean ± SD (n = 3)
MEASURE: pIC50
pIC50 here is simply -log10 of the concentration when that concentration is written in mol/L.

Q) Which pIC50 value is on record for COc1cc(C)c(Oc2cc(C)cc(O)c2O)c(O)c1 [NK-A 17E-233I] ?
A) 4.31
